# maps each entry to its inhibition in vivo at 50 mg/kg
tested on: Rattus norvegicus; experiment: Inhibition of adjuvant induced swelling of rat right hind paw by 50 mg/kg p.o. administration.; type: functional; details: route oral
parameter: inhibition in vivo at 50 mg/kg (%)

{"structure_notation": "COC(=O)c1c(CSc2nccn2C)nc2cc(OC)c(OC)cc2c1-c1ccc(OC)c(OC)c1", "tested_target": "Rattus norvegicus", "parameter": "inhibition in vivo at 50 mg/kg", "number": 67}
{"structure_notation": "CCOC(=O)c1c(CSc2nccn2C)nc2cc3c(cc2c1-c1ccc(OC)c(OC)c1)OCCO3", "tested_target": "Rattus norvegicus", "parameter": "inhibition in vivo at 50 mg/kg", "number": 56}
{"structure_notation": "CCOC(=O)c1c(CSc2ncc[nH]2)nc2cc(OC)c(OC)cc2c1-c1ccc(OC)c(OC)c1", "tested_target": "Rattus norvegicus", "parameter": "inhibition in vivo at 50 mg/kg", "number": 60}
{"structure_notation": "CCOC(=O)c1c(CSc2nncn2C)nc2cc(OC)c(OC)cc2c1-c1ccc(OC)c(OC)c1", "tested_target": "Rattus norvegicus", "parameter": "inhibition in vivo at 50 mg/kg", "number": 66}
{"structure_notation": "CCOC(=O)c1c(CSc2nccn2C)nc2cc(OC)c(OC)cc2c1-c1ccc(OC)c(OC)c1", "tested_target": "Rattus norvegicus", "parameter": "inhibition in vivo at 50 mg/kg", "number": 60}

----------
tested on: Rattus norvegicus; experiment: Inhibition of adjuvant induced swelling of rat right hind paw by 50 mg/kg p.o. administration.; format: functional; settings: route oral
# maps each entry to its inhibition in vivo at 50 mg/kg

{"structure_notation": "COc1ccc(-c2nc(CCc3nccn3C)nc3cc(OC)c(OC)cc23)cc1OC", "inhibition in vivo at 50 mg/kg (%)": 71}
{"structure_notation": "CCOC(=O)c1c(CCc2nccn2C)nc2cc(OC)c(OC)cc2c1-c1ccc(OC)c(OC)c1", "inhibition in vivo at 50 mg/kg (%)": 75}
{"structure_notation": "CCOC(=O)c1c(CSc2nccn2C)nc2cc(OC)c(OC)cc2c1-c1ccc(Cl)cc1", "inhibition in vivo at 50 mg/kg (%)": 41}
{"structure_notation": "CCOC(=O)c1c(CSc2nccn2C)nc2cc(OC)c(OC)cc2c1-c1ccc2c(c1)OCO2", "inhibition in vivo at 50 mg/kg (%)": 63}
{"structure_notation": "CCOC(=O)c1c(CS(=O)(=O)c2nccn2C)nc2cc(OC)c(OC)cc2c1-c1ccc(OC)c(OC)c1", "inhibition in vivo at 50 mg/kg (%)": 56}
{"structure_notation": "CCOC(=O)c1c(CSc2nccn2C)nc2cc(OC)c(OC)cc2c1-c1ccc(C)cc1", "inhibition in vivo at 50 mg/kg (%)": 67}
{"structure_notation": "CCOC(=O)c1c(CSc2nccn2CC)nc2cc(OC)c(OC)cc2c1-c1ccc(OC)c(OC)c1", "inhibition in vivo at 50 mg/kg (%)": 51}
{"structure_notation": "CCOC(=O)c1c(CSc2nccn2C)nc2ccc(OC)cc2c1-c1ccc(OC)cc1", "inhibition in vivo at 50 mg/kg (%)": 45}
{"structure_notation": "CCOC(=O)c1c(CSc2nccn2C)nc2cc(OCC)c(OCC)cc2c1-c1ccc(OC)c(OC)c1", "inhibition in vivo at 50 mg/kg (%)": 59}
